- Assay Procedure: Metabolic stability in mouse liver microsomes assessed as parent compound remaining at 1 uM preincubated for 5 mins followed by NADPH addition after 30 mins by LC-MS/MS analysis
- Assay type: ADME, Microsome
- Test Parameters: read-out: Stability
Outcome Measure: remaining at 0.5 h, 1 µM (%)
The figure you give is taken to be in %; do not add the unit.

# count of solved cases: 8
Q: GET /values?readout=remaining at 0.5 h, 1 µM&item= `Cc1cccc(Cl)c1C(=O)c1cn(-c2ccc(C(=O)O)cc2F)c2ccccc12`
A: 84

Q: Given the compound `O=C(O)c1ccc(-n2cc(C(=O)c3c(Cl)cccc3Cl)c3ccccc32)c(F)c1` , what is its reported remaining at 0.5 h, 1 µM?
A: 91

Q: Fill blank: measured remaining at 0.5 h, 1 µM of the compound `O=C(O)c1ccc(-n2cc(C(=O)c3c(Cl)cccc3Cl)c3cccnc32)cc1` is ____.
A: 100

Q: Fill in the blank: the reported remaining at 0.5 h, 1 µM of `CCS(=O)(=O)c1ccc(CC(=O)Nc2cc(Cl)c(-c3ccccc3OC(F)(F)F)c(Cl)c2)cc1` is ____.
A: 70

Q: Could you tell me which remaining at 0.5 h, 1 µM is on file for `O=C(O)c1ccc(-n2cc(C(=O)c3c(Cl)cccc3Cl)c3c(F)cccc32)c(F)c1` ?
A: 100

Q: Which remaining at 0.5 h, 1 µM value belongs to `Cc1cccc(Cl)c1C(=O)c1cn(-c2ccc(C(=O)O)cc2)c2ccccc12` ?
A: 85

Q: Item `O=C(O)c1ccc(-n2cc(C(=O)c3c(Cl)cccc3Cl)c3ncccc32)cc1` has what recorded remaining at 0.5 h, 1 µM?
A: 100

Q: What value of remaining at 0.5 h, 1 µM has been recorded for this entry: `COc1cccc2c(C(=O)c3c(Cl)cccc3Cl)cn(-c3ccc(C(=O)O)cc3)c12`
A: 83

Turning now to a further record.
Q: Name the recorded remaining at 0.5 h, 1 µM for `Cc1c(C(=O)c2c(Cl)cccc2Cl)c2ccccc2n1-c1ccc(C(=O)O)cc1` .
A: 92

----------
- Assay Target: Nuclear receptor ROR-gamma (Mus musculus)
- Sequence (whole entry): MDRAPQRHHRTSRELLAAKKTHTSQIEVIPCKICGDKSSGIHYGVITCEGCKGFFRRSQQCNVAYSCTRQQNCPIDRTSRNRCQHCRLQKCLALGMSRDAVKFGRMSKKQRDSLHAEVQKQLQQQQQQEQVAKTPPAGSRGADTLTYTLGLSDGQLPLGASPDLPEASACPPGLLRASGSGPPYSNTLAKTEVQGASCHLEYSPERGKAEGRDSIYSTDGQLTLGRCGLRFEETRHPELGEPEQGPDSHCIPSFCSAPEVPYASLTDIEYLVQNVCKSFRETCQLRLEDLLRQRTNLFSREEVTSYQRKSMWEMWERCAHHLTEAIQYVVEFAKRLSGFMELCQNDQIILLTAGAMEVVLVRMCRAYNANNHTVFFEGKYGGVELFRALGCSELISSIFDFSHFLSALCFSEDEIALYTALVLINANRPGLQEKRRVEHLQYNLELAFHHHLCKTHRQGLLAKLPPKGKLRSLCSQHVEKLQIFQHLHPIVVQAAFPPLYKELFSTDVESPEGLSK
- Assay Procedure: Transrepression of RORgammat in Balb/c mouse splenocytes assessed as inhibition of anti-CD3/anti-CD28 stimulated IL-17 gene expression at 0.3 uM measured after 24 hrs in presence of anti-CD3/anti-CD28
- Type: cell-based
Outcome Measure: inhibition (%)
Field: numeric (%). Do not append units.

Q: I have this compound here, `Cc1cccc(Cl)c1C(=O)c1cn(-c2ccc(C(=O)O)cc2)c2ccccc12` , and I need its recorded inhibition.
A: 3

Q: # lookup: inhibition of `O=C(O)c1ccc(-n2cc(C(=O)c3c(Cl)cccc3Cl)c3cccc(F)c32)cc1`
A: 2

Q: Would you kindly share the measured inhibition for `O=C(O)c1ccc(-n2cc(C(=O)c3c(Cl)cccc3C(F)(F)F)c3cccc(F)c32)cc1` ?
A: 18

Shifting focus to the compound that follows.
Q: # input compound: `O=C(O)c1ccc(-c2nn(C(=O)c3c(Cl)cccc3Cl)c3ccccc23)cc1` ; wanted: its inhibition
A: 15
